# Test system: MS2 coat protein
# METHOD NOTES: apparent Kd, MS2 coat protein; higher = weaker binding; RNA-MaP array; FMN 200 µM where present
# CONDITION LABEL: designed as: OFF switch for flavin mononucleotide; no ligand
ASSAY READOUT: apparent Kd (nM)
Quick reminder: number only, in nM, skip the unit.

Consider the reported apparent Kd for these sequences:
| SEQUENCE STRING | apparent Kd (nM) |
| --- | --- |
| CAGUACGGAGGAUAUACAUGAGGAUCACCCAUGUGAGAAAUACUAGUGAGGUCGAUUAGUAGAAGGCUGUACUG | 40.5 |
| GUAGAGUCAGGAUAUACGAGAUCGAUAGAUCAAAGAUCCUUACAUGAGGAUCACCCAUGUAGAAGGGACUCUAC | 37.4 |
| AAUUAUAUACAGAAGGAGUUAUAUUGAGUAUUACUAGGAUAUGUUCACAUGAGGAUCACCCAUGUCAUAUUGGGAUUUAUUAUA | 21.6 |
| CUCGUGUAAGGAUAUGCGAGCCACGGAAAUAAAACGUGGAGGUAGAAGGUACAUGAGGAUCACCCAUGUAAAAC | 25.4 |
| GGGCCCGGAGGAUAUACAUGAGGAUCACCCAUGUAGGGCCCGGGUAUUUUUGGGCCCUGUAGAAGGUUGGGCCC | 11.5 |
| GGUUGGCGAGGAUAUACAUGAGGAUCACCCAUGUGGUCCUGUGGCUGGUCUUGACUUUGUAGAAGGCGCGGGUC | 49.7 |
| CUUUUGUGAGGAUAUUAGUAGUAAAUAAAUAAAAUUACUACUGAGAAGGCACAUGAGGAUCACCCAUGUUCCUC | 33.7 |
| CUGUAGAGUUAGGAUAUCGGCGCGUGAGAAGUUUGAGAAGGGACCACAUGAGGAUCACCCAUGUGUCUUCACCU | 14.7 |
| CCAUUUCUGUAAGGAUAUAUAAACAUGACGAUACAUGAGGAUCACCCAUGUGUAGAAGGUACAAAUACAUAUAAUGCAAUGUUC | 14.8 |
| AGAUACUACGAGAAGGACAUGAGGAUCACCCAUGUAACCAGUAUCUGGAAUGUAGGAUAUCGUAGUAUCAGGAUCGUGAGAUCA | 9.91 |

Lab note: next sequence to report on.
Task: Bench note: what apparent Kd did `AGCUGUGGCCGAGGAUAUACAUCCUUUAUAACCGAUGAAUAUCAUCGGACAUGAGGAUCACCCAUGUAGAAGGCGGUCUCAGCA` show?
Result: 149

---

# System: MS2 coat protein
# METHOD NOTES: apparent Kd, MS2 coat protein; higher = weaker binding; RNA-MaP array; FMN 200 µM where present
# CONDITION LABEL: designed as: ON switch for flavin mononucleotide; no ligand
ASSAY READOUT: apparent Kd (µM)
Quick reminder: number only, in µM, skip the unit.

Consider the reported apparent Kd for these sequences:
| SEQUENCE STRING | ASSAY READOUT | OBSERVED RESULT |
| --- | --- | --- |
| GGUCGUCACAUUAACAUGAGGAUCACCCAUGUGAAAACACAUGAGGAUAUGCAUCCUAAUUGGAUGCAGAAGGCAUGGACGACC | apparent Kd | 0.0247 |
| GCGGAACAUGAGGAUCACCCAUGUAUCCGAAAUAUGGACUCACAGGAUAUCCAGAGUUGCCAAUCGGAGAAGGGUGACUCCAGC | apparent Kd | 0.0144 |

Task: Bench note: what apparent Kd did `GUAGCUAUCGCAGGAUAUCCUCAGCGGAAACGCACAUGAGGAUCACCCAUGUAAAUAAAUAAUUUGGAGAAGGGCGAUAGCUAC` show?
Result: 0.323

Task: // query: `GGAGCCGGUACUGAGGAUAUUCAUAUUAAAACAUGAGGAUCACCCAUGUAGGCCAGAAGGCCUUGGGAGAAGGCAGGCCAGCUCG`
Result: 0.378

Task: // query: `GCUGCUCAUGAGAAGGCGAUCAUGAAACAUGAUCGAGGAUAUCAUGUAAACAUGAGGAUCACCCAUGUAUGGGUAUUAUGCAGC`
Result: 0.117

Task: // query: `AAAGGGAUUACGGAGGAUAUGGAAAAAAAAACAUGAGGAUCACCCAUGUCAAAAAAAAAAAAGGACCAGAAGGCCGUAAUCUCAAA`
Result: 0.0273

Task: // query: `UUGGUUGUCGUAGGAUAUGUAGGAUAUUCCUACAUGAGGAUCACCCAUGUUCGCAUGGAAGAAGGACAGAAGGACGAUGACCAG`
Result: 1.24

Task: // query: `AGUAAGAUGCAGAAGGUGUUAGCUAGAGCUACGACAUGAGGAUCACCCAUGUAAAACCGCCCGUACAAGGAUAUGCAUCUUACA`
Result: 0.00612

Task: // query: `CUCAAACAUGAGGAUCACCCAUGUGUUGUCAUGGGAGGAUAUCUAAGUUCAUUGUAUUCAGGAGAAGGCCUAUGUC`
Result: 0.31

Task: // query: `UAAAUCUUGUAAGGAUAUACACGAGAUUCAAGUGUAGAAGGUACUUACAUGAGGAUCACCCAUGUAUACAUGGAUAAUAGAUAU`
Result: 0.211

Task: // query: `GUAUCUUACCAAGGAUAUUUAAGAUUAGUGUAGACAUGAGGAUCACCCAUGUGGCCUUAGUCACGGGAGAAGGUGGUUUGAUAC`
Result: 0.312
